Experiment: LNCaP cell loss by flow event count, confirmation, cytotoxicity control for prostate differentiation activator project, single point (AID 1076);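 also: counts scatter-gated live cells after medium removal discards detached dead cells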
Conditions: flow cytometry event count, 4 d, at 100 µM, hits give low values
hey, just use true if measured cell event count is less than 100, otherwise false

# example entries with known answers
Cn1nc(-c2ccc(Cl)cc2)c2cc(C(=O)NCCN3CCOCC3)sc21 :: true
Cc1cc(C)n2nc(SCC(=O)Nc3ccc(F)cc3)nc2n1 :: false
CCC(=O)N(Cc1ccco1)c1nc(-c2cc(OC)ccc2OC)cs1 :: false
Cc1cc(N2CCN(C)CC2)nc2ccc(NC(=O)c3ccc4c(c3)OCO4)cc12 :: true

State whether 100 exceeds cell event count recorded for CCOc1ccc(NC(=O)COc2nsnc2N2CCCCC2)cc1 .
true

// same read-out, input: CCOC(=O)c1sc2ncnc(N3CCN(c4ccc(OC)cc4)CC3)c2c1C
true

// same read-out, input: Cc1ccccc1-c1nc(CN2CCC(C(=O)N3CCN(c4ccccn4)CC3)CC2)c(C)o1
true

// same read-out, input: CCN1CCN(CCNC(=O)C2CCCN(Cc3nc(-c4cccc(Cl)c4)oc3C)C2)CC1 (configuration not stated)
true

// same read-out, input: CCOC(=O)c1ccc(-c2n[nH]c(=O)c3ccccc23)cc1
false

// same read-out, input: Cc1cc(NC(=O)c2noc3c2CCc2ccccc2-3)n(-c2ccccc2)n1
false

// same read-out, input: CCOc1ccc(OCC)c(NC(=O)C2CCCN(S(=O)(=O)c3c(C)noc3C)C2)c1 (configuration not stated)
false

// same read-out, input: O=C(C1CCN(S(=O)(=O)c2cccc3nsnc23)CC1)N1CC=C(c2ccccc2)CC1
true

// same read-out, input: COc1ccc(-c2coc3c(CN4CCCCC4)c(O)c(CN4CCCCC4)c(O)c3c2=O)cc1
true

// same read-out, input: Cc1ccccc1OCc1nc(-c2ccc(NC(=O)c3ccc4c(c3)OCO4)cc2)no1
true

// same read-out, input: CN(CC(O)COc1ccc(OCC(O)CN(C)C2CCCCC2)cc1)C1CCCCC1 (configuration not stated)
false

// same read-out, input: Cc1ccc(-c2noc(CCC(=O)NC3CCN(Cc4ccccc4)CC3)n2)cc1
true

// same read-out, input: CCOC(=O)N1CCN(S(=O)(=O)c2ccc(C(=O)Nc3nc4ccccc4s3)cc2)CC1
false

// same read-out, input: CCN1CCN(CCNC(=O)C2CCN(Cc3nc(-c4ccc(Cl)cc4)oc3C)CC2)CC1
true

// same read-out, input: Cc1ccc(C)c2[nH]c(=O)c(CN(CCN3CCCC3)C(=O)Nc3cccc(Cl)c3)cc12
true
